- assay system: CDK2/cyclin A (Homo sapiens, UniProt P20248)
- protocol text: Competitive binding assay (fluorescence polarisation, fluorescein tracer peptide)
- particulars: purified recombinant human CDK2/cyclin A; tracer fluorescein-Ahx-His-Ala-Lys-Arg-Arg-Leu-Ile-Phe-NH2; 1 h room temperature; read-out: Inhibitory activity IC50 ± SD, Competitive binding assay
pIC50: −log10 of the molar value. Non-standard residues stand in square brackets, D forms with d. Residues, ends and D or L forms follow the SMILES beside them. *: point of attachment. X2 = CC(C)n1c(C(F)(F)F)nc2cc(C(=O)*)ccc21; X10 = O=C(c1c(-c2ccccc2)nc2cccc(Cl)n12)*; X4 = Cc1nc(C(=O)*)nn1-c1cccc(C(F)(F)F)c1; Phe(4-F) = N[C@@H](Cc1ccc(F)cc1)C(=O)O; X13 = Cc1nc(C(=O)*)nn1-c1ccc(Cl)cc1Cl; X9 = O=C(COn1c(-c2ccccc2)nc2ccccc21)*; X7 = O=C(c1ccc2nc(-n3cccc3)sc2c1)*
Measured pIC50 of individual entries

compound	pIC50
CC(C)C[C@H](NC(=O)[C@H](CCCNC(=N)N)NC(=O)c1ccc2nc(-n3cccc3)sc2c1)C(=O)N[C@@H](CC(N)=O)C(=O)N[C@@H](Cc1ccc(F)cc1)C(N)=O [Compound 12] (X7-RLN[Phe(4-F)]-NH2)	5.32
CC(C)C[C@H](NC(=O)[C@H](CCCNC(=N)N)NC(=O)COn1c(-c2ccccc2)nc2ccccc21)C(=O)N[C@@H](CC(N)=O)C(=O)N[C@@H](Cc1ccc(F)cc1)C(N)=O [Compound 9] (X9-RLN[Phe(4-F)]-NH2)	4.82
CC(C)C[C@@H](CNc1cccc(Oc2ccccc2)c1)NC(=O)[C@H](CCCNC(=N)N)NC(=O)[C@@H](N)CCCNC(=N)N	4.64
CC(C)C[C@H](NC(=O)[C@H](CCCNC(=N)N)NC(=O)c1ccc2c(c1)nc(C(F)(F)F)n2C(C)C)C(=O)N[C@@H](CC(N)=O)C(=O)N[C@@H](Cc1ccc(F)cc1)C(N)=O [Compound 13] (X2-RLN[Phe(4-F)]-NH2)	5.59
CC(C)C[C@H](NC(=O)[C@H](CCCNC(=N)N)NC(=O)[C@@H](N)CCCNC(=N)N)C(=O)Nc1cccc(OCc2ccccc2)c1	4.46
CC(C)C[C@H](NC(=O)[C@H](CCCNC(=N)N)NC(=O)[C@@H](N)CCCNC(=N)N)C(=O)Nc1cccc(Oc2ccccc2)c1	4.24
CC(C)C[C@H](NC(=O)[C@H](CCCNC(=N)N)NC(=O)c1c(-c2ccccc2)nc2cccc(Cl)n12)C(=O)N[C@@H](CC(N)=O)C(=O)N[C@@H](Cc1ccc(F)cc1)C(N)=O [Compound 1] (X10-RLN[Phe(4-F)]-NH2)	4.92
CC(C)C[C@H](NC(=O)[C@H](CCCNC(=N)N)NC(=O)[C@@H](N)CCCNC(=N)N)C(=O)NCc1cccc(Oc2ccccc2)c1	5.33
Cc1nc(C(=O)N[C@@H](CCCNC(=N)N)C(=O)N[C@@H](CC(C)C)C(=O)N[C@@H](CC(N)=O)C(=O)N[C@@H](Cc2ccc(F)cc2)C(N)=O)nn1-c1ccc(Cl)cc1Cl [Compound 4] (X13-RLN[Phe(4-F)]-NH2)	5.44
Cc1cc(NC(=O)C2CCCCC2C(=O)N[C@@H](CC(C)C)C(=O)N[C@@H](CC(N)=O)C(=O)N[C@@H](Cc2ccc(F)cc2)C(N)=O)no1 (some centres unmarked)	3.66
Cc1nc(C(=O)N[C@@H](CCCNC(=N)N)C(=O)N[C@@H](CC(C)C)C(=O)N[C@@H](CC(N)=O)C(=O)N[C@@H](Cc2ccc(F)cc2)C(N)=O)nn1-c1cccc(C(F)(F)F)c1 [Compound 14] (X4-RLN[Phe(4-F)]-NH2)	5.55
